// IC90 lookup, one value per entry
test system: Acinetobacter baumannii ATCC17978; test: Antimicrobial susceptibility testing: 90% growth inhibitory concentration (IC90) determination, Iso-Sensitest broth, OD 600 nm; type: cell-based; conditions: Acinetobacter baumannii, ATCC17978, 16 h, 90% growth inhibitory concentration, Acinetobacter baumannii ATCC17978, Iso-Sensitest broth, OD 600 nm over 16 h; read-out: ATCC 17978 IC90
Counter-ions that a name gives are not always drawn.
Supply the numeric figure in nM, leaving out any unit text.

// known answers, use as guide
COc1ccc(-c2cnc3c(Nc4ccc(C(=O)NCCOCCN5CCC(O)CC5)c(C)c4)nccn23)cc1 [Example 38] | 150
CNCCOCCNC(=O)c1ccc(Nc2nccn3c(-c4ccc(OC(F)F)cc4)cnc23)cc1C [Example 45] | 290
COc1ccc(-c2cnc3c(Nc4ccc(C(=O)NCCOCCn5ccnn5)c(C)c4)nccn23)cc1 [Example 107] | 500
COc1ccc(-c2cnc3c(Nc4ccc(C(=O)NCCOCCN5CCOC(CN)C5)c(C)c4)nccn23)cc1F (stereo not shown) [Example 111, hydrochloride] | 560
COc1ccc(-c2cnc3c(Nc4ccc(C(=O)NCCN(C)CCN)c(C)c4)nccn23)cc1F [Example 23] | 200

Query block: Which measured IC90 value corresponds to CCN(C(=O)NCCCN(C)C)C(=O)c1ccc(Nc2nccn3c(-c4ccc(OCC#N)c(F)c4F)cnc23)cc1Cl [Example 27] ?
Result block: 560

Query block: Which measured IC90 value corresponds to COCC#CCOc1ccc(-c2cnc3c(Nc4ccc(C(=O)NCCOCCN)c(C)c4)nccn23)cc1 [Example 93] ?
Result block: 280

###

// IC90 lookup, one value per entry
System: Acinetobacter baumannii ATCC17978
Assay: Antimicrobial susceptibility testing: 90% growth inhibitory concentration (IC90) determination, Iso-Sensitest broth, OD 600 nm
Type: cell-based
Settings: Acinetobacter baumannii, ATCC17978, 16 h, 90% growth inhibitory concentration, Acinetobacter baumannii ATCC17978, Iso-Sensitest broth, OD 600 nm over 16 h; read-out: ATCC 17978 IC90
Protocol: Antimicrobial Susceptibility Testing: 90% Growth Inhibitory Concentration (IC90) Determination The in vitro antimicrobial activity of the compounds was determined according to the following procedure: The assay used a 10-points Iso-Sensitest broth medium to measure quantitatively the in vitro activity of the compounds against Acinetobacter baumannii ATCC17978 and Acinetobacter baumannii ATCC17961. […]
Counter-ions that a name gives are not always drawn.
Supply the numeric figure in nM, leaving out any unit text.

COc1ccc(-c2cnc3c(Nc4ccc(C(=O)NCCOCCN)c(Cl)c4)nccn23)c(F)c1F | 57
COc1ccc(-c2cnc3c(Nc4ccc(C(=O)N(C)CCOCCN5CCNC(C(=O)O)C5)c(C)c4)nccn23)cc1F (stereo not drawn) [Example 166, hydrochloride] | 4700
Cc1cc(Nc2nccn3c(-c4ccc(OC(F)F)cc4)cnc23)ccc1C(=O)NCCOCCN1CCCCC1 | 280

Query block: Which measured IC90 value corresponds to Cc1cc(Nc2nccn3c(-c4ccc(OC(F)F)cc4)cnc23)ccc1C(=O)NCCOCCNC(=O)CN(C)C ?
Result block: 670

Query block: Which measured IC90 value corresponds to COc1ccc(-c2cnc3c(Nc4ccc(C(=O)NCCOCCN)c(CC(F)F)c4)nccn23)cc1F ?
Result block: 370

Query block: Which measured IC90 value corresponds to Cc1cc(Nc2nccn3c(-c4ccc(OC(F)F)cc4)cnc23)ccc1C(=O)NCCOCCN1CCOC(CN)C1 (stereo not drawn) [Example 164, hydrochloride] ?
Result block: 970

###

// IC90 lookup, one value per entry
system: Acinetobacter baumannii ATCC17978; experiment: Antimicrobial susceptibility testing: 90% growth inhibitory concentration (IC90) determination, Iso-Sensitest broth, OD 600 nm; format: cell-based; settings: Acinetobacter baumannii, ATCC17978, 16 h, 90% growth inhibitory concentration, Acinetobacter baumannii ATCC17978, Iso-Sensitest broth, OD 600 nm over 16 h; read-out: ATCC 17978 IC90
Counter-ions that a name gives are not always drawn.
Supply the numeric figure in nM, leaving out any unit text.

// known answers, use as guide
CCc1cc(Nc2nccn3c(-c4ccc(OC(F)F)c(F)c4F)cnc23)ccc1C(=O)NCCCNCCO | 280
COc1ccc(-c2cnc3c(Nc4ccc(C(=O)NCCOCC(=O)N5CCN(C)CC5)c(C)c4)nccn23)cc1 | 590
COc1ccc(-c2cnc3c(Nc4ccc(C(=O)NCCOCCNS(C)(=O)=O)c(C)c4)nccn23)cc1 | 530
COc1ccc(-c2cnc3c(Nc4ccc(C(=O)NCCOCCNCCO)c(C)c4)nccn23)cc1 | 210
C#CCOc1ccc(-c2cnc3c(Nc4ccc(C(=O)NCCOCCN)c(CC)c4)nccn23)c(F)c1F | 46
CCCCC(=O)NCCOCCNC(=O)c1ccc(Nc2nccn3c(-c4ccc(OC)cc4)cnc23)cc1C | 1000

Query block: What IC90 appears in the records for this compound with Acinetobacter baumannii ATCC17978? Cc1cc(Nc2nccn3c(-c4ccc(OC(F)F)cc4)cnc23)ccc1C(=O)NCCOCCN [Example 90, hydrochloride]
Result block: 230

Query block: What IC90 appears in the records for this compound with Acinetobacter baumannii ATCC17978? Cc1cc(Nc2nccn3c(-c4ccc(OC(F)F)cc4)cnc23)ccc1C(=O)NCCOCCNC(=O)CN1CCNCC1 [Example 153, hydrochloride]
Result block: 2000

Query block: What IC90 appears in the records for this compound with Acinetobacter baumannii ATCC17978? CN(CCOCCN1CCC(C(=O)O)CC1)C(=O)c1ccc(Nc2nccn3c(-c4ccc(OCC#N)c(F)c4F)cnc23)cc1Cl
Result block: 1100

Query block: What IC90 appears in the records for this compound with Acinetobacter baumannii ATCC17978? CCc1cc(Nc2nccn3c(-c4ccc(OC)cc4)cnc23)ccc1C(=O)NCCOCCNCCO
Result block: 220

Query block: What IC90 appears in the records for this compound with Acinetobacter baumannii ATCC17978? COc1ccc(-c2cnc3c(Nc4ccc(C(=O)NCCOCCN5CCNC(=O)C5)c(C)c4)nccn23)c(F)c1F
Result block: 380

Query block: What IC90 appears in the records for this compound with Acinetobacter baumannii ATCC17978? COc1ccc(-c2cnc3c(Nc4ccc(C(=O)NCCOCCN5CCC(F)CC5)c(C)c4)nccn23)cc1
Result block: 290

Query block: What IC90 appears in the records for this compound with Acinetobacter baumannii ATCC17978? COc1ccc(-c2cnc3c(Nc4ccc(C(=O)NCCOCCN5CCN(C)CC5)c(C)c4)nccn23)cc1
Result block: 620

Query block: What IC90 appears in the records for this compound with Acinetobacter baumannii ATCC17978? CCc1cc(Nc2nccn3c(-c4ccc(Cl)c(F)c4F)cnc23)ccc1C(=O)NCCCNC [Example 192, hydrochloride]
Result block: 1600

Query block: What IC90 appears in the records for this compound with Acinetobacter baumannii ATCC17978? Cc1cc(Nc2nccn3c(-c4ccc(OC(F)F)cc4)cnc23)ccc1C(=O)NCCOCCN1CCC2(COC2)C1
Result block: 640

###

test system: Acinetobacter baumannii ATCC17978; assay: Antimicrobial susceptibility testing: 90% growth inhibitory concentration (IC90) determination, Iso-Sensitest broth, OD 600 nm; type: cell-based; details: Acinetobacter baumannii, ATCC17978, 16 h, 90% growth inhibitory concentration, Acinetobacter baumannii ATCC17978, Iso-Sensitest broth, OD 600 nm over 16 h; read-out: ATCC 17978 IC90
Where a name gives a salt, the structure may show the parent alone.
Decision: IC90 beneath 1000 nM gives fulfilled; IC90 meeting or exceeding 1000 nM gives not fulfilled.

Check out these entries, answers already filled in.
CN(CCOCCN1CCCC(C(=O)O)C1)C(=O)c1ccc(Nc2nccn3c(-c4ccc(OCC#N)c(F)c4F)cnc23)cc1Cl (stereo not drawn) | not fulfilled
Cc1cc(Nc2nccn3c(-c4ccc(OC(F)F)cc4)cnc23)ccc1C(=O)NCCOCCNC(=O)CCC(=O)O | not fulfilled
Cc1cc(Nc2nccn3c(-c4ccc(OCC#CCOCCN)cc4)cnc23)ccc1C(=O)NCCOCCN | fulfilled
CCc1cc(Nc2nccn3c(-c4ccc(OC)c(F)c4F)cnc23)ccc1C(=O)NCCCNCCCN | fulfilled
COc1ccc(-c2cnc3c(Nc4ccc(C(=O)NCCOCCN5CCNCC5)c(C)c4)nccn23)cc1F [Example 113, hydrochloride] | fulfilled

Query block: IC90 strictly < 1000 nM for this compound? COc1ccc(-c2cnc3c(Nc4ccc(C(=O)NCCOCC(=O)N5CCNCC5)c(C)c4)nccn23)cc1F
Result block: fulfilled

Query block: IC90 strictly < 1000 nM for this compound? Cc1cc(Nc2nccn3c(-c4ccc(OC(F)F)cc4)cnc23)ccc1C(=O)NCCOCCN1C(=O)COC1=O
Result block: fulfilled

Query block: IC90 strictly < 1000 nM for this compound? COc1ccc(-c2cnc3c(Nc4ccc(C(=O)NCCNCCO)c(C)c4)nccn23)cc1
Result block: not fulfilled

Query block: IC90 strictly < 1000 nM for this compound? COc1ccc(-c2cnc3c(Nc4ccc(C(=O)NCCOCCN)cc4)nccn23)cc1 [Example 15, hydrochloride]
Result block: not fulfilled
